Here, each record is paired with measured MIC90 data.
Tested on: Aspergillus niger
Assay: Antifungal activity against Aspergillus niger by broth microdilution method
Type: functional

compound | system | quantity unit | value modifier | MIC90
CON=C1C2C(c3ccc(Cl)cc3)NC(c3ccc(Cl)cc3)C1C(c1ccc(Cl)cc1)NC2c1ccc(Cl)cc1 (centres undefined) | Aspergillus niger | µg/mL | = | 16
CON=C1C2C(c3cccc(Cl)c3)NC(c3cccc(Cl)c3)C1C(c1cccc(Cl)c1)NC2c1cccc(Cl)c1 (centres undefined) | Aspergillus niger | µg/mL | = | 64
CON=C1C2C(c3ccccc3)NC(c3ccccc3)C1C(c1ccccc1)NC2c1ccccc1 (centres undefined) | Aspergillus niger | µg/mL | > | 128
CCc1ccc(C2NC(c3ccc(CC)cc3)C3C(=NOC)C2C(c2ccc(CC)cc2)NC3c2ccc(CC)cc2)cc1 (centres undefined) | Aspergillus niger | µg/mL | > | 128

###

Test system: Aspergillus niger
Experiment: Antifungal activity against Aspergillus niger by broth microdilution method
Assay type: functional
Here, each record is paired with measured MIC90 data.

compound | system | quantity unit | value modifier | MIC90
CON=C1C2C(c3ccccc3Cl)NC(c3ccccc3Cl)C1C(c1ccccc1Cl)NC2c1ccccc1Cl (stereo not drawn) | Aspergillus niger | µg/mL | = | 2
CCCCOc1ccc(C2NC(c3ccc(OCCCC)cc3)C3C(=NO)C2C(c2ccc(OCCCC)cc2)NC3c2ccc(OCCCC)cc2)cc1 (stereo not drawn) | Aspergillus niger | µg/mL | = | 32
ON=C1C2C(c3ccccc3)NC(c3ccccc3)C1C(c1ccccc1)NC2c1ccccc1 (stereo not drawn) | Aspergillus niger | µg/mL | > | 128
COc1cccc(C2NC(c3cccc(OC)c3)C3C(=NO)C2C(c2cccc(OC)c2)NC3c2cccc(OC)c2)c1 (stereo not drawn) | Aspergillus niger | µg/mL | = | 64
ON=C1C2C(c3ccc(Br)cc3)NC(c3ccc(Br)cc3)C1C(c1ccc(Br)cc1)NC2c1ccc(Br)cc1 (stereo not drawn) | Aspergillus niger | µg/mL | > | 128
ON=C1C2C(c3cccc(F)c3)NC(c3cccc(F)c3)C1C(c1cccc(F)c1)NC2c1cccc(F)c1 (stereo not drawn) | Aspergillus niger | µg/mL | = | 64
CON=C1C2C(c3ccc(Br)cc3)NC(c3ccc(Br)cc3)C1C(c1ccc(Br)cc1)NC2c1ccc(Br)cc1 (stereo not drawn) | Aspergillus niger | µg/mL | > | 128
CCCOc1ccc(C2NC(c3ccc(OCCC)cc3)C3C(=NO)C2C(c2ccc(OCCC)cc2)NC3c2ccc(OCCC)cc2)cc1 (stereo not drawn) | Aspergillus niger | µg/mL | = | 32

###

Tested on: Cryptococcus neoformans
Test: Antimicrobial activity against Cryptococcus neoformans by broth microdilution method
Assay type: functional
assay metric: MIC90 (µg/mL)

compound | value modifier | endpoint value
CCOc1ccc(C2NC(c3ccc(OCC)cc3)C3C(=NOC)C2C(c2ccc(OCC)cc2)NC3c2ccc(OCC)cc2)cc1 (centres undefined) | = | 16
CON=C1C2C(c3ccc(OCc4ccccc4)cc3)NC(c3ccc(OCc4ccccc4)cc3)C1C(c1ccc(OCc3ccccc3)cc1)NC2c1ccc(OCc2ccccc2)cc1 (centres undefined) | > | 128
CCOc1ccccc1C1NC(c2ccccc2OCC)C2C(=NOC)C1C(c1ccccc1OCC)NC2c1ccccc1OCC (centres undefined) | = | 16
CCOc1ccccc1C1NC(c2ccccc2OCC)C2C(=NO)C1C(c1ccccc1OCC)NC2c1ccccc1OCC (centres undefined) | = | 64

Reference source: ChEMBL document CHEMBL1268976
